Reference source: patent US20110118447A1

# SYSTEM: binding partner of C5A (XPA23)
# ASSAY_OVERVIEW: Biacore K-off
ASSAY_READOUT: fold difference in affinity vs original

Worked examples follow.
[
  {
    "BINDER": "C5A (XPA23) VH Y32P (antibody, V domains shown) VH: EVQLLESGGGLVQPGGSLRLSCAASGFTFSKPFMFWVRQAPGKGLEWVSVISPSGGMTRYADSVKGRFTISRDNSKNTLYLQMNSLRAEDTAVYYCARVGYGGNSDYWGQGTLVTVSS VL: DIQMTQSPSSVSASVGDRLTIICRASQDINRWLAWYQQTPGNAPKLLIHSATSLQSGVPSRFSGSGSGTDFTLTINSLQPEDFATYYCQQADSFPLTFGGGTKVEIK",
    "fold difference in affinity vs original": "0.68 fold"
  },
  {
    "BINDER": "C5A (XPA23) VL N30S (antibody, V domains shown) VH: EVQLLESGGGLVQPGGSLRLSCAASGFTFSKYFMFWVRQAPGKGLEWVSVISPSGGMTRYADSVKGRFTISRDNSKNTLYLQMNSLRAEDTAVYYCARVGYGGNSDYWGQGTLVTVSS VL: DIQMTQSPSSVSASVGDRLTIICRASQDISRWLAWYQQTPGNAPKLLIHSATSLQSGVPSRFSGSGSGTDFTLTINSLQPEDFATYYCQQADSFPLTFGGGTKVEIK",
    "fold difference in affinity vs original": "0.72 fold"
  }
]

From here, focus on the item given below.
Query block: Note down fold difference in affinity vs original recorded for C5A (XPA23) VL L96Q (antibody, V domains shown) VH: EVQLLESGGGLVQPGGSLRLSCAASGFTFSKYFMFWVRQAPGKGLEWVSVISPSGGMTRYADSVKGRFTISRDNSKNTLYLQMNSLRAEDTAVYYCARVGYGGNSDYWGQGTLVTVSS VL: DIQMTQSPSSVSASVGDRLTIICRASQDINRWLAWYQQTPGNAPKLLIHSATSLQSGVPSRFSGSGSGTDFTLTINSLQPEDFATYYCQQADSFPQTFGGGTKVEIK
Result block: 0.21 fold
